Target: SALL4 ZFC4 R900W (HT-SELEX) (Mus musculus, UniProt Q8BX22 870-940, R900W)
Sequence: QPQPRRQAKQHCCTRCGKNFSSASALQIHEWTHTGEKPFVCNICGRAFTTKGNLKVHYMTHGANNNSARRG
Assay: HT-SELEX; high values mean tight binding
Settings: protein: recombinant; vector His6-GST; dsDNA, one strand shown
Rule: binding signal below 0.6 fold-change vs cycle 0 gives 1.0, anything at or above gives 0.0.

sequence_record=AAACGT category=0.0
sequence_record=CATGGA category=0.0
sequence_record=GCACTA category=0.0
sequence_record=GAAGGA category=0.0
sequence_record=CGTAGA category=0.0

hey, is binding signal for `CGAGCA` lower than 0.6 fold-change vs cycle 0 or not? 1.0

hey, is binding signal for `ACTCCG` lower than 0.6 fold-change vs cycle 0 or not? 1.0

----------
Molecular target: SALL4 ZFC4 R900W (HT-SELEX) (Mus musculus, UniProt Q8BX22 870-940, R900W)
Sequence: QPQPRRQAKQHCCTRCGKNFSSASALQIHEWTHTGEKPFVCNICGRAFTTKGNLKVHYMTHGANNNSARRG
Test: HT-SELEX; high values mean tight binding
Details: protein: recombinant; vector His6-GST; dsDNA, one strand shown
Measured endpoint: binding signal (fold-change vs cycle 0)
The reply should contain only the number, in fold-change vs cycle 0.

These solved cases illustrate the format of a correct answer.
sequence_record=ATCCTA units_symbol="fold-change vs cycle 0" readout_number=1.6
sequence_record=GATGTA units_symbol="fold-change vs cycle 0" readout_number=1.43
sequence_record=CGCGTC units_symbol="fold-change vs cycle 0" readout_number=0.112
sequence_record=GACCGC units_symbol="fold-change vs cycle 0" readout_number=0.124
sequence_record=TCCGCA units_symbol="fold-change vs cycle 0" readout_number=0.269
sequence_record=CCAGGG units_symbol="fold-change vs cycle 0" readout_number=0.305

Using the record for `AACGAA` , report its binding signal. 1.28

Using the record for `AGACCC` , report its binding signal. 0.511

Using the record for `CGCAAA` , report its binding signal. 0.376

Using the record for `ATAGAT` , report its binding signal. 2.05

Using the record for `GTAACA` , report its binding signal. 1.52

----------
A collection of sequences and their measured binding signal
Target: SALL4 ZFC4 G921D (HT-SELEX) (Mus musculus, UniProt Q8BX22 870-940, G921D)
Sequence: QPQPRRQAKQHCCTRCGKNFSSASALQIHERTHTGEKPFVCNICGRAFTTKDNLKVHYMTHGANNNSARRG
Test: HT-SELEX; high values mean tight binding
Settings: protein: recombinant; vector His6-GST; dsDNA, one strand shown

sequence_record=CAAGGC result="0.492 fold-change vs cycle 0"

Using the record for `AACTTG` , report its binding signal. 1.29 fold-change vs cycle 0

Using the record for `CCTAGC` , report its binding signal. 0.55 fold-change vs cycle 0

Using the record for `CCAGGA` , report its binding signal. 0.63 fold-change vs cycle 0

Using the record for `CGATCA` , report its binding signal. 0.896 fold-change vs cycle 0

Using the record for `ACACAC` , report its binding signal. 0.903 fold-change vs cycle 0

Using the record for `CTTTCC` , report its binding signal. 0.967 fold-change vs cycle 0

Using the record for `CGGGCA` , report its binding signal. 0.223 fold-change vs cycle 0

Using the record for `CATGCG` , report its binding signal. 0.441 fold-change vs cycle 0

Using the record for `CCCACC` , report its binding signal. 0.397 fold-change vs cycle 0

Using the record for `GGGGTA` , report its binding signal. 0.611 fold-change vs cycle 0

Using the record for `ACCTCC` , report its binding signal. 0.721 fold-change vs cycle 0

----------
Target: SALL4 ZFC4 G921D (HT-SELEX) (Mus musculus, UniProt Q8BX22 870-940, G921D)
Sequence: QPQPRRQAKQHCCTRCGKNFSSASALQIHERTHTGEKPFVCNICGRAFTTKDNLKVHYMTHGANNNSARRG
Assay: HT-SELEX; high values mean tight binding
Details: protein: recombinant; vector His6-GST; dsDNA, one strand shown
A collection of sequences and their measured log10 of binding signal
# values: log10(binding signal), units fold-change vs cycle 0

sequence_record=CCAGCG readout_number=-0.61
sequence_record=AGAGGC readout_number=-0.32
sequence_record=ATGATG readout_number=0.16

Using the record for `AGGGAG` , report its log10 of binding signal. -0.13

Using the record for `CGCGCA` , report its log10 of binding signal. -0.86

Using the record for `CTAGCC` , report its log10 of binding signal. -0.29

Using the record for `ATTAGC` , report its log10 of binding signal. 0.08

Using the record for `GGGCGA` , report its log10 of binding signal. -0.60

----------
Target: SALL4 ZFC4 G921D (HT-SELEX) (Mus musculus, UniProt Q8BX22 870-940, G921D)
Sequence: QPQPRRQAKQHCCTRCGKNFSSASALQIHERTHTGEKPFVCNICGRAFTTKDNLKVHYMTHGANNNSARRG
Test: HT-SELEX; high values mean tight binding
Details: protein: recombinant; vector His6-GST; dsDNA, one strand shown
Rule: binding signal below 0.9 fold-change vs cycle 0 gives TRUE, anything at or above gives FALSE.

hey, is binding signal for `CAAGTG` lower than 0.9 fold-change vs cycle 0 or not? FALSE

hey, is binding signal for `CAGTGG` lower than 0.9 fold-change vs cycle 0 or not? TRUE

----------
Molecular target: SALL4 ZFC4 R900W (HT-SELEX) (Mus musculus, UniProt Q8BX22 870-940, R900W)
Sequence: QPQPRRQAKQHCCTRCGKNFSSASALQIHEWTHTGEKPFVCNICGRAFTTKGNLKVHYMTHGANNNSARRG
Experiment: HT-SELEX; high values mean tight binding
Settings: protein: recombinant; vector His6-GST; dsDNA, one strand shown
Decision: binding signal >= 0.2 fold-change vs cycle 0 yields class 1, all other cases yield class 0.

Some entries whose results are on file:
sequence_record=CGCTTA category="class 1"
sequence_record=CGACTA category="class 1"
sequence_record=ACGGGG category="class 1"
sequence_record=AAACTT category="class 1"
sequence_record=CGAGGC category="class 0"

Kindly determine if binding signal recorded for `AACGGC` is above or exactly 0.2 fold-change vs cycle 0. class 1

Kindly determine if binding signal recorded for `TCGAAA` is above or exactly 0.2 fold-change vs cycle 0. class 1

Kindly determine if binding signal recorded for `CAGACC` is above or exactly 0.2 fold-change vs cycle 0. class 1

Kindly determine if binding signal recorded for `CCCCGC` is above or exactly 0.2 fold-change vs cycle 0. class 0

Kindly determine if binding signal recorded for `GCGACA` is above or exactly 0.2 fold-change vs cycle 0. class 0

Kindly determine if binding signal recorded for `AGGCCC` is above or exactly 0.2 fold-change vs cycle 0. class 0

Kindly determine if binding signal recorded for `ACGGAT` is above or exactly 0.2 fold-change vs cycle 0. class 1

----------
Biological target: SALL4 ZFC4 R900W (HT-SELEX) (Mus musculus, UniProt Q8BX22 870-940, R900W)
Sequence: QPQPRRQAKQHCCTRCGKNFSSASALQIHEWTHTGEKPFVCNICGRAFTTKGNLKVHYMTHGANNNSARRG
Assay: HT-SELEX; high values mean tight binding
Settings: protein: recombinant; vector His6-GST; dsDNA, one strand shown
Measured endpoint: binding signal

These solved cases illustrate the format of a correct answer.
sequence_record=CAGAGC target_entity="SALL4 ZFC4 R900W (HT-SELEX) (Mus musculus, UniProt Q8BX22 870-940, R900W)" result="0.382 fold-change vs cycle 0"
sequence_record=TAAGTA target_entity="SALL4 ZFC4 R900W (HT-SELEX) (Mus musculus, UniProt Q8BX22 870-940, R900W)" result="2.23 fold-change vs cycle 0"
sequence_record=AGAGCT target_entity="SALL4 ZFC4 R900W (HT-SELEX) (Mus musculus, UniProt Q8BX22 870-940, R900W)" result="0.784 fold-change vs cycle 0"
sequence_record=GACACA target_entity="SALL4 ZFC4 R900W (HT-SELEX) (Mus musculus, UniProt Q8BX22 870-940, R900W)" result="0.754 fold-change vs cycle 0"
sequence_record=CGCGAA target_entity="SALL4 ZFC4 R900W (HT-SELEX) (Mus musculus, UniProt Q8BX22 870-940, R900W)" result="0.201 fold-change vs cycle 0"

Using the record for `CCACGC` , report its binding signal. 0.141 fold-change vs cycle 0

Using the record for `CTACGC` , report its binding signal. 0.278 fold-change vs cycle 0

Using the record for `ATGTGC` , report its binding signal. 0.588 fold-change vs cycle 0

Using the record for `GGCATA` , report its binding signal. 0.562 fold-change vs cycle 0

Using the record for `CATCGC` , report its binding signal. 0.317 fold-change vs cycle 0

Using the record for `CAATAG` , report its binding signal. 1.34 fold-change vs cycle 0

Using the record for `AACGTA` , report its binding signal. 1.3 fold-change vs cycle 0

These measurements were taken from paper PMC9838217.
